These entries and their values trace back to patent US20160152729A1.

measured.on: T1, human TFPI (1-79) (human, UniProt P10646 29-107)
T1 construct: Acidic N-terminal region and KPI-1 domain
measurement.protocol: SPR Biacore T200; mAb captured on anti-mouse Ig; TFPI as analyte; 1:1 model
pKd: −log10 of the molar value.
The following binders are listed with their measured pKd values.
measured.quantity: pKd

binder="mAb 1F91 (antibody, IgG1, V domains shown, Murine mIgG1, kappa light chain) VH: DVQLQESGPGLVKPSQSLSLTCTVSGYSITSDYAWNWIRQFPGNKLEWMGYISYSGSTSYNPSLKSRISITRDTSKNQFFLQLNSVTTEDTATYYCARWAYDGPWGQGTLVTVSA VL: QIVLSQSPALLSASPGEKVTMTCRASSSVSHMHWYQQKPGSSPKPWIYATSNLASGVPARFSGSGSGTSYSLTITRVEAEDAATYYCQQWSSNPFTFGSGTKLEIKR" measured_quantity=pKd obs_value=7.82
binder="mAb 2F22 (antibody, IgG1, V domains shown, Murine mIgG1, kappa light chain) VH: QVQLKQSGPGLVQPSQSLSITCTVSGFSLTNYGVHWVRQSPGKGLEWLAVIWRGGSIDYNAAFMSRLSITKDNSKSQVFFKMNSLQADDTAIYYCAKNSHGNYVGYAMDYWGQGTSVTVSS VL: GIVMTQSQKFMSTTVGDRVSITCKASQSVGPAVAWYQQKPGQSPKLLIYSASNRYTGVPDRFTGSGSGADFTLTISNLHSEDLADYFCQQYTSYPTFGGGTKLEIKR" measured_quantity=pKd obs_value=9.02
binder="mAb 1F56 (antibody, V domains shown, murine antibody from hybridoma) VH: DVQLQESGPGLVKPSQSLSLTCTVSGYSITSDYAWNWIRQFPGNKLEWMGYISYSGSTSYNPSLKSRISITRDTSKNQFFLQLNSVTTEDTATYYCARWAYDGPWGQGTLVTVSA VL: QIVLSQSPALLSASPGEKVTMTCRASSSVSHMHWYQQKPGSSPKPWIYATSNLASGVPARFSGSGSGTSYSLTITRVEAEDAATYYCQQWSSNPFTFGSGTKLEIKR" measured_quantity=pKd obs_value=7.87
binder="mAb 2F3 (antibody, IgG1, V domains shown, Murine mIgG1, kappa light chain) VH: QVQLKQSGPGLVQPSQSLSITCTVSGFSLSSYGVHWVRQSPGKGLEWLGVIWRGGSTDFNAAFMSRVSFTKDNSKSQVFFKMNSLQADDTAIYYCAKNSHGNYVGYAMDYWGQGTSVTVSS VL: DIVMTQSQKFMSTTVGDKVSIPCKASENVGAAVAWYQQKPGQSPTLLIYSASNRYTGIPDRFTGSGSGTDFTLTIRTVQSEDLADYFCQQYTNYPTFGGGTKLEIKR" measured_quantity=pKd obs_value=9.25
